# system-name: delta receptors, rat brain (Rattus norvegicus, UniProt P33533)
# Construct: from tissue; host or cells: rat brain homogenate
# Sequence (P33533 whole entry): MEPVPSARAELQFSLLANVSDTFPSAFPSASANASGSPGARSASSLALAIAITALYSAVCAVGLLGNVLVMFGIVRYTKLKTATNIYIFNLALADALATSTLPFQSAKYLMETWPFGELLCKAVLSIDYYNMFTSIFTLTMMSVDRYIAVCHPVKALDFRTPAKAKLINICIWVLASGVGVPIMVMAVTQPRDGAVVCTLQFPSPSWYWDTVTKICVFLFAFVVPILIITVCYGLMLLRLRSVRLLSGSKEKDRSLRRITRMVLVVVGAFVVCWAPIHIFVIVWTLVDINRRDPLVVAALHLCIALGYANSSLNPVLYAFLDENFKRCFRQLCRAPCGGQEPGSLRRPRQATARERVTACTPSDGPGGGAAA
# assay: GTP[γ]35S binding functional assay, homogenised rat brain membranes
# Assay type: biochemical
Listing: Emax of selected compounds
The figure you give is taken to be in %; do not add the unit.

Example compounds with recorded Emax:
CCN(CC)C(=O)c1ccc(C(=C2CCN(Cc3ccccn3)CC2)c2cccc3cccnc23)cc1; 126
CCN(CC)C(=O)c1ccc(C(=C2CCN(Cc3ccncc3)CC2)c2cccc3cccnc23)cc1; 109
CCN(CC)C(=O)c1ccc(C(=C2CCN(Cc3ccccc3)CC2)c2cccc3cccnc23)cc1; 104
CCN(CC)C(=O)c1ccc(C(=C2CCN(Cc3ccco3)CC2)c2cccc3cccnc23)cc1; 130

For the compound CCN(CC)C(=O)c1ccc(C(=C2CCN(Cc3ccsc3)CC2)c2cccc3cccnc23)cc1 , give its measured Emax value.
135
